Tested on: SK-MEL-2
assay.summary: NCI one-dose screening, melanoma SK-MEL-2
Type: cell-based, human
assay.context: SK-MEL-2, 10 μM

compound: CN(C)CCNc1cc2c(c3nsnc13)C(=O)c1ccccc1C2=O [C8]
Growth Percent (10 μM), %: −66.52

compound: O=C1c2ccccc2C(=O)c2c1cc(N1CCCC1)c1nsnc21 [C7]
Growth Percent (10 μM), %: 115.43

compound: Cc1ccc(Nc2cc3c(c4nsnc24)C(=O)c2ccccc2C3=O)cc1 [C64]
Growth Percent (10 μM), %: 93.85

compound: CC(C)Sc1cc2c(c3nsnc13)C(=O)c1ccccc1C2=O [C18]
Growth Percent (10 μM), %: −55.62

====

Test system: ACHN
assay.summary: NCI one-dose screening, renal cancer ACHN
Format: cell-based, human
assay.context: ACHN

compound: O=C1c2ccccc2C(=O)c2c1cc(N1CCCC1)c1nsnc21 [C7]
Growth Percent (10 μM): 82.97%

compound: CN(C)CCNc1cc2c(c3nsnc13)C(=O)c1ccccc1C2=O [C8]
Growth Percent (10 μM): −22.86%

compound: CC(C)Sc1cc2c(c3nsnc13)C(=O)c1ccccc1C2=O [C18]
Growth Percent (10 μM): 0.80%

compound: Cc1ccc(Nc2cc3c(c4nsnc24)C(=O)c2ccccc2C3=O)cc1 [C64]
Growth Percent (10 μM): 57.60%

====

Tested on: HOP-62
assay.summary: NCI one-dose screening, non-small cell lung cancer HOP-62
Format: cell-based, human
assay.context: HOP-62, 10 μM
assay.readout: Growth Percent (10 μM) (%)

smiles.str: CN(C)CCNc1cc2c(c3nsnc13)C(=O)c1ccccc1C2=O
numeric.result: −67.97

smiles.str: O=C1c2ccccc2C(=O)c2c1cc(N1CCCC1)c1nsnc21
numeric.result: 79.16

smiles.str: Cc1ccc(Nc2cc3c(c4nsnc24)C(=O)c2ccccc2C3=O)cc1
numeric.result: 65.10

smiles.str: CC(C)Sc1cc2c(c3nsnc13)C(=O)c1ccccc1C2=O
numeric.result: 13.18

====

System: SK-MEL-28
assay.summary: NCI one-dose screening, melanoma SK-MEL-28
Assay type: cell-based, human
assay.context: SK-MEL-28, 10 μM
assay.readout: Growth Percent (10 μM) (%)

molecule: CC(C)Sc1cc2c(c3nsnc13)C(=O)c1ccccc1C2=O [C18]
assayed.system: SK-MEL-28
assay.readout: Growth Percent (10 μM)
units.of.measure: %
numeric.result: −8.32
//
molecule: Cc1ccc(Nc2cc3c(c4nsnc24)C(=O)c2ccccc2C3=O)cc1 [C64]
assayed.system: SK-MEL-28
assay.readout: Growth Percent (10 μM)
units.of.measure: %
numeric.result: 74.97
//
molecule: O=C1c2ccccc2C(=O)c2c1cc(N1CCCC1)c1nsnc21 [C7]
assayed.system: SK-MEL-28
assay.readout: Growth Percent (10 μM)
units.of.measure: %
numeric.result: 99.46
//
molecule: CN(C)CCNc1cc2c(c3nsnc13)C(=O)c1ccccc1C2=O [C8]
assayed.system: SK-MEL-28
assay.readout: Growth Percent (10 μM)
units.of.measure: %
numeric.result: −50.60

====

Test system: SR
assay.summary: NCI one-dose screening, leukemia SR
Type: cell-based, human
assay.context: 10 μM

smiles.str: Cc1ccccc1Nc1cc2c(c3nsnc13)C(=O)c1ccccc1C2=O
Growth Percent SR [%]: −15.27
--
smiles.str: O=C1c2ccccc2C(=O)c2c1cc(N1CCSCC1)c1nsnc21
Growth Percent SR [%]: 55.02
--
smiles.str: CSc1ccc(Sc2cc3c(c4nsnc24)C(=O)c2ccccc2C3=O)cc1
Growth Percent SR [%]: 96.31
--
smiles.str: O=C1c2ccccc2C(=O)c2c1cc(Cl)c1nsnc21
Growth Percent SR [%]: −23.86
--
smiles.str: O=C1c2ccccc2C(=O)c2c1cc(Sc1ccc(Cl)cc1)c1nsnc21
Growth Percent SR [%]: 110.89
--
smiles.str: CCSc1cc2c(c3nsnc13)C(=O)c1ccccc1C2=O
Growth Percent SR [%]: −54.27
--
smiles.str: O=C1c2ccccc2C(=O)c2c1cc(SCc1ccc(Cl)cc1)c1nsnc21
Growth Percent SR [%]: 63.73
--
smiles.str: O=C1c2ccccc2C(=O)c2c1cc(SCc1ccccc1)c1nsnc21
Growth Percent SR [%]: 1.25
--
smiles.str: O=C1c2ccccc2C(=O)c2c1cc(Nc1ccc(Cl)cc1F)c1nsnc21
Growth Percent SR [%]: 23.58
--
smiles.str: O=C1c2ccccc2C(=O)c2c1cc(Sc1ccccc1Br)c1nsnc21
Growth Percent SR [%]: 2.94

====

System: IGROV1
assay.summary: NCI one-dose screening, ovarian cancer IGROV1
Assay type: cell-based, human
assay.context: IGROV1, 10 μM
Measured Growth Percent (10 μM) by item
assay.readout: Growth Percent (10 μM) (%)

smiles.str: CN(C)CCNc1cc2c(c3nsnc13)C(=O)c1ccccc1C2=O
assay.readout: Growth Percent (10 μM)
numeric.result: −28.40
--
smiles.str: O=C1c2ccccc2C(=O)c2c1cc(N1CCCC1)c1nsnc21
assay.readout: Growth Percent (10 μM)
numeric.result: 75.83
--
smiles.str: CC(C)Sc1cc2c(c3nsnc13)C(=O)c1ccccc1C2=O
assay.readout: Growth Percent (10 μM)
numeric.result: −32.91
--
smiles.str: Cc1ccc(Nc2cc3c(c4nsnc24)C(=O)c2ccccc2C3=O)cc1
assay.readout: Growth Percent (10 μM)
numeric.result: 49.40

====

Tested on: SK-MEL-28
assay.summary: NCI one-dose screening, melanoma SK-MEL-28
Assay type: cell-based, human
assay.context: 10 μM

molecule: Cc1ccccc1Nc1cc2c(c3nsnc13)C(=O)c1ccccc1C2=O [C61]
Growth Percent SK-MEL-28 [%]: 53.13
//
molecule: O=C1c2ccccc2C(=O)c2c1cc(Sc1ccc(F)cc1F)c1nsnc21 [C39]
Growth Percent SK-MEL-28 [%]: 79.45
//
molecule: O=C1c2ccccc2C(=O)c2c1cc(Sc1ccc(Cl)cc1)c1nsnc21 [C22]
Growth Percent SK-MEL-28 [%]: 130.48
//
molecule: O=C1c2ccccc2C(=O)c2c1cc(N1CCOCC1)c1nsnc21 [C10]
Growth Percent SK-MEL-28 [%]: 104.55
//
molecule: CCOc1cccc(Sc2cc3c(c4nsnc24)C(=O)c2ccccc2C3=O)c1 [C50]
Growth Percent SK-MEL-28 [%]: 112.20

====

Growth Percent UACC-62: recorded values
Tested on: UACC-62
assay.summary: NCI one-dose screening, melanoma UACC-62
Assay type: cell-based, human
assay.context: 10 μM

smiles.str: O=C1c2ccccc2C(=O)c2c1cc(Cl)c1nsnc21
assayed.system: UACC-62
Growth Percent UACC-62 / %: 72.91

smiles.str: O=C1c2ccccc2C(=O)c2c1cc(N1CCSCC1)c1nsnc21
assayed.system: UACC-62
Growth Percent UACC-62 / %: 83.96

smiles.str: O=C1c2ccccc2C(=O)c2c1ccc1nsnc21
assayed.system: UACC-62
Growth Percent UACC-62 / %: −82.32

smiles.str: O=C1c2ccccc2C(=O)c2c1cc(Nc1ccc(Cl)cc1F)c1nsnc21
assayed.system: UACC-62
Growth Percent UACC-62 / %: 85.80

smiles.str: O=C1c2ccccc2C(=O)c2c1cc(SCc1ccc(Cl)cc1)c1nsnc21
assayed.system: UACC-62
Growth Percent UACC-62 / %: 101.52

smiles.str: O=C1c2ccccc2C(=O)c2c1cc(N1CCOCC1)c1nsnc21
assayed.system: UACC-62
Growth Percent UACC-62 / %: 62.43

smiles.str: COc1cccc(Sc2cc3c(c4nsnc24)C(=O)c2ccccc2C3=O)c1
assayed.system: UACC-62
Growth Percent UACC-62 / %: 87.72

smiles.str: O=C1c2ccccc2C(=O)c2c1cc(Sc1ccccn1)c1nsnc21
assayed.system: UACC-62
Growth Percent UACC-62 / %: 69.46

smiles.str: O=C1c2ccccc2C(=O)c2c1cc(Sc1ccccc1Br)c1nsnc21
assayed.system: UACC-62
Growth Percent UACC-62 / %: 39.58

smiles.str: CCSc1cc2c(c3nsnc13)C(=O)c1ccccc1C2=O
assayed.system: UACC-62
Growth Percent UACC-62 / %: −38.24

====

compounds and their reported Growth Percent LOX IMVI
System: LOX IMVI
assay.summary: NCI one-dose screening, melanoma LOX IMVI
Type: cell-based, human
assay.context: 10 μM

compound: O=C1c2ccccc2C(=O)c2c1cc(Sc1cccc(Cl)c1)c1nsnc21 [C37]
assayed.system: LOX IMVI
Growth Percent LOX IMVI / %: −59.25
//
compound: O=C1c2ccccc2C(=O)c2c1cc(Nc1ccc(Cl)cc1)c1nsnc21 [C60]
assayed.system: LOX IMVI
Growth Percent LOX IMVI / %: 27.09
//
compound: O=C1c2ccccc2C(=O)c2c1cc(Sc1ccccn1)c1nsnc21 [C58]
assayed.system: LOX IMVI
Growth Percent LOX IMVI / %: −54.85
//
compound: O=C1c2ccccc2C(=O)c2c1cc(Sc1ccccc1Br)c1nsnc21 [C27]
assayed.system: LOX IMVI
Growth Percent LOX IMVI / %: −15.34
//
compound: O=C1c2ccccc2C(=O)c2c1cc(SCc1ccccc1)c1nsnc21 [C21]
assayed.system: LOX IMVI
Growth Percent LOX IMVI / %: 7.49
